# METHOD: yeast display, Sf9 membrane polyspecificity reagent, FACS + sequencing; frameworks hold sequencing errors
ENDPOINT: polyreactivity (PSR sort gate)

QVQLVESGGGLVQAGGSLRLSCAASGRTFRYYAMGWYRQAPGKERELVAAITSNGGSTYYADSVKGRFTISRDNAKNTVYLQMNSLKPEDTAVYYCNALASRGKYGFDYWGQGTQVTVSS : high polyreactivity
QVQLVESGGGLVQAGGSLRLSCAASGRIFGLYAMGWYRQAPGKERELVAAITKRGGTTYYADSVKVRFTISRDNAKNTVYLQMKSLKPEDTAVYYCAAKRSVLRTADYDYWGQGTQVTVSS : high polyreactivity

----------
# METHOD: yeast display, Sf9 membrane polyspecificity reagent, FACS + sequencing; frameworks hold sequencing errors
ENDPOINT: polyreactivity (PSR sort gate)

QVQLVESGGGLVQAGGSLRLSCAASGRTFGFNAMGWYRQAPGKERELVAAISGSGGRTYYADSVKGRFTISRDNAKNTVYLQMNSLKPEDTAVYYCAAGARRGGSGYWGQGTQVTVSS : high polyreactivity
QVQLVESGGGLVQAGGSLRLSCAASGSIFNAYVMGWYRQAPGKERELVAAISRSGGRTYYADSVKGRFTISRDNATNTVYLQMNCLKPEDTAVYYCAAGYRYNYWGQGSQVTVSS : high polyreactivity

----------
# METHOD: yeast display, Sf9 membrane polyspecificity reagent, FACS + sequencing; frameworks hold sequencing errors
ENDPOINT: polyreactivity (PSR sort gate)

Below, each entry is followed by its recorded polyreactivity (PSR sort gate) result.
QVQLVESGGGLVQAGGSLRLSCAASGTTFVKNDMGWYRQAPGKERELVAAISGGSTNYADSVKGRFTISRDNAKNTVYLQMNSLKPEDTAVYYCAAVQWYTSIEGIQPYYYWGQGTQVTVSS : low polyreactivity
QVQLVESVGGLVQAGGSLRLSCAASGRTFVLNTMGWYRQAPGKERELVAAISKSGGSTYYADSVKGRFTISRDNAKNTVYLQMNSLKPEDTAVYYCAARTRQLEYNSWGEGTQVTVSS : high polyreactivity
QVQHVESGGGLVQAGGSLRLSCAASGSILRSYAMGWFRQAPGKERELVAVINGSGGRTYYADSVKGRFTISRDNEKNTVYLQMISLKPEDTAVYYCNADPGGRYPRRGYAHEGDYWGQGTQVTVSS : low polyreactivity
QVQRVESGGGLVQAGGSLRLSCAASGSIFSVYAMGWYRQAPGKERELVAAITSSGGSTYYADSVKGRFTISRDNAKNTVNFQMKSLKPEDTAVYYCAADKYLRRRSWYRYGYWGQGTQVTVSS : high polyreactivity

State its polyreactivity (PSR sort gate) for this sequence: `QVQLVESGGGLVQAGGSLRLSCAASGRTFRSYAMGWYRQAPGKERELVAAISYGGGRTFYADSVKGRFTISRDNAKNTVYLQMNSLKPEDTAVYYCNAAFPRSYRFDYWGQGTKVTVSS`
high polyreactivity

----------
# METHOD: yeast display, Sf9 membrane polyspecificity reagent, FACS + sequencing; frameworks hold sequencing errors
ENDPOINT: polyreactivity (PSR sort gate)

Below, each entry is followed by its recorded polyreactivity (PSR sort gate) result.
QVQLVESGGGLVQAGGSLRLSCAASGFIFRLYAMGWYRQAPGKERELVAAISSSGGRTTYADSVKGRFTISRDNAKNTVYLQMNSLKPEDTAVYYCNADLWPGNHDGYWGQGTQVTVSS : low polyreactivity
QVQLVESGGGLVQAGGSLRLSCAASGFTFYEYAMGWYRQAPGKERELVAAITQTGVRTYYADSVKGRFTISRDNAKNTVYLQMNSLKPEDTAVYYCAADDPRQRPRGHYDYWGQGTQVTVSS : low polyreactivity
QVQLEESGGGLVQAGGSLRLSCAASGFTFYSYAKGCSRQAPGKERELVAAISWSGSRTYYADSVKGRFTISRDNAKNTVYLQMNSLKPEDTAVYVCNKYLPRHRYDFDYWGQGTQVTVSS : high polyreactivity
QVQLVESGGGLVQAGGSLRLSCAASGSTFGNYAMGWYRQAPGKERELVAAISTSGGSTYYADSVKRRFTISRDNAKNTVYLQMNSLKPEDTAVYYCAKRLVRVRSRAVSDYYWGQGTQVTVSS : high polyreactivity

In the following, a different sequence is considered.
State its polyreactivity (PSR sort gate) for this sequence: `QVQLVESGGGLVQAGGSLRLSCAASGITFGDYAMGWYRQAPGKERELVAAISYGGGSTYYADSVKGSFTISRDNAKNTVYLQMNSLKPEDTAVYYCAADGWRTYGYYEYDYWGQGTQVTVSS`
low polyreactivity
